Readings of growth for the listed compounds
# System: MALME-3M melanoma
# protocolDescription: NCI-60 one-dose screen, 48 h (100 = growth as untreated, 0 = no growth, -100 = all killed)
# experimentalSetup: 10 µM
Compounds without any hit were thinned out: in the full panel of roughly 83,000, 20% have a hit.
Write the value in % as a bare number.

The examples below pair each entry with its known result.
compound | quantityKind | outputUnit | valueReported
COc1cccc2c1cc([N+](=O)[O-])c1c(C(=O)O)cc3c(c12)OCO3 | growth | % | 95.9
CC1=C(CN(O)C(N)=O)C2=C(C)C3(CC3)[C@](C)(O)C(=O)C2=C1 | growth | % | 2.97
COc1cc(OC)c(S(=O)(=O)N(CCCl)CCCl)cc1C(=O)/C=C/c1ccc(Cl)cc1 | growth | % | 85.4
C[C@@H]1CCC/C=C/[C@H]2C[C@@H](O)C[C@@H]2[C@@H](O)/C=C/C(=O)O1 | growth | % | -7.08
CC1=C(CN(O)C(N)=O)C2=C(C)C3(CC3)[C@@](C)(O)C(=O)C2=C1 | growth | % | -39.2
C=C1[C@@H](C)C2[C@H](Cc3ccccc3)NC(=O)[C@]23[C@H](OC(C)=O)/C=C/[C@@](C)(O)C(=O)[C@@H](C)C/C=C/[C@H]3[C@@H]1O (some centres not stated) | growth | % | 81.2

Let's switch to this compound now.
Task item: Value wanted: growth (MALME-3M melanoma) of entry N#Cc1c(-n2c(Br)c(Br)c3cc(Br)ccc32)[nH]c2c(Br)cc(Br)cc12
Reply: -17.4

* * *

# Tested on: HL-60(TB) leukemia
# protocolDescription: NCI-60 one-dose screen, 48 h (100 = growth as untreated, 0 = no growth, -100 = all killed)
# experimentalSetup: 10 µM unless noted
The panel holds about 83,000 compounds, 20% with a hit somewhere; the sample as a whole holds those more often.
Simple rule here: growth less than 40% is MET, otherwise NOT MET.

Observe how each entry below is paired with its result.
compound | assignedCategory
COc1ccc(-c2nc3cc(Cl)c(Cl)cc3n2CC(=O)N=Nc2c(O)[nH]c3ccc(Br)cc23)cc1 | NOT MET
NS(=O)(=O)c1ccc(-n2cc(CN3CCNCC3)nn2)cc1 | NOT MET
COc1ccccc1-n1cc(C#N)c(N)c1C(=O)c1ccc(Br)cc1 | MET
CCCC/C(=C\c1ccc(O)c(O)c1)C(=O)NC(Cc1ccccc1)C(=O)C(=O)NCCc1ccc(OC)cc1 (centres undefined) | NOT MET
COC(=O)C1CCCN(S(=O)(=O)/N=C2\NC(=O)NC2=C(Cl)Cl)C1 (centres undefined) | NOT MET

Task item: Strictly below 40% in growth? CC(C)[C@H]1c2[nH]c3ccccc3c2C[C@H]2C(=O)N(CCCCCCC(=O)NO)CC(=O)N12
Reply: NOT MET

Task item: Confirm or reject: growth of COc1ccc(Cn2cc3c(c2-c2cc(OC)c(OC)c(OC)c2)CCc2c(CN4CCCC4)noc2-3)cc1 lies strictly below 40%
Reply: MET

Task item: A record lists COc1cc(-c2nc(-c3ccccc3)[nH]c2-c2ccnc(NCCCNS(=O)(=O)c3cccc(F)c3)n2)ccc1F . Is its growth below 40%?
Reply: NOT MET

Task item: Is 40% strictly greater than the compound's reported growth? compound: O=S(=O)(Nc1ccc(-c2nc(-c3cccc(O)c3)c(-c3ccnc(Br)c3)[nH]2)cc1)c1ccccc1
Reply: MET
